The measured values listed here are drawn from paper PMC6234094.

TARGET_SYSTEM: QscR (Pseudomonas aeruginosa, UniProt G3XD77)
ASSAY_NAME: QscR agonism, E. coli JLD271
Format: cell-based
STUDY_CONDITIONS: ratio of EC50 to that of OdDHL, QscR reporter
Recorded measurements of Reduction in potency relative to OdDHL (1) in QscR, one per entry

Reference set (2 entries):
COMPOUND	RECORDED_MEASUREMENT
CCCCCCCCCC(=O)CC(=O)NC1CCCC1 [Compound 6]	24 fold
CCCCCCCCCC(=O)CC(=O)N[C@H]1CCCC1=O [Compound 5]	~ 55 fold

API: the following record is the query input.
Form field: reported Reduction in potency relative to OdDHL (1) in QscR of CCCCCCCCCC(=O)CC(=O)N[C@H]1CCNC1=O [Compound 4]
> 200 fold
